# TESTED ON: Recombinant ROCK1 (amino acids 1-477) (Homo sapiens)
# Construct: Recombinant ROCK1 (amino acids 1-477); by word order, ROCK1 from Carna Biosciences
# EXPERIMENT NOTES: ROCK inhibition assay, LANCE Ultra TR-FRET kinase assay (ROCK1)
# CONDITIONS USED: 1 μM ATP, 50 nM ULight-CREBtide substrate
pIC50: −log10 of the molar value.
Reported values of pIC50 for individual entries

| COMPOUND | RESULT |
| --- | --- |
| O=C(Nc1cccc(Cn2ccc3cc(-c4c[nH]nc4C(F)F)ccc3c2=O)c1)c1cccnc1 [Compound 342] | 6.30 to 7.00 |

Problem: Recombinant ROCK1 (amino acids 1-477) (Homo sapiens) / pIC50 / O=C(N[C@H]1CC[C@@H](O)CC1)c1cc(F)cc(Cn2ccc3cc(-c4c[nH]nc4C(F)F)ncc3c2=O)c1 [Compound 275] : value?
Result: 7.00 to 7.96

Problem: Checklist item: pIC50 tested on Recombinant ROCK1 (amino acids 1-477) (Homo sapiens), entry Cc1nocc1-c1ccc2c(=O)n(Cc3cccc(C(=O)Nc4nc5c(s4)CCNC5)c3)ccc2c1 [Compound 93] , value?
Result: > 8.00

Problem: Requested read-out pIC50, target or system Recombinant ROCK1 (amino acids 1-477) (Homo sapiens), entry Cc1nocc1-c1ccc2c(=O)n(Cc3cccc(C(=O)Nc4ccc5c(c4)CCN(C(C)C)C5)c3)ccc2c1 [Compound 98]
Result: > 8.00

###

# TESTED ON: Recombinant ROCK2 (amino acids 5-554) (Homo sapiens)
# Construct: ROCK2 (amino acids 5-554); by word order, ROCK2 from SignalChem
# Sequence (O75116 5-554): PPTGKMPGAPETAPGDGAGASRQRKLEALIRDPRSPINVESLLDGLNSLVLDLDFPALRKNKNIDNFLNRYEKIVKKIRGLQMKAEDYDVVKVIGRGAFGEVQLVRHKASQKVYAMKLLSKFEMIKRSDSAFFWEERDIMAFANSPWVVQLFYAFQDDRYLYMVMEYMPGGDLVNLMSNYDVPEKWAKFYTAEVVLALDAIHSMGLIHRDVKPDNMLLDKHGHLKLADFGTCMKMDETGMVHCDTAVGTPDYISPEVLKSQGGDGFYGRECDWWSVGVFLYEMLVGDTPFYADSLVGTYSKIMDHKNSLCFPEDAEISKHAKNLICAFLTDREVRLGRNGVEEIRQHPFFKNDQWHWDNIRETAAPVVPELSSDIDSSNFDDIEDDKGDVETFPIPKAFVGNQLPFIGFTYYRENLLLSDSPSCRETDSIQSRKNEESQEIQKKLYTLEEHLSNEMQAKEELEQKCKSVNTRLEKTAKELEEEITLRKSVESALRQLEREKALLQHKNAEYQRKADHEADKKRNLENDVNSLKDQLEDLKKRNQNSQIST
# EXPERIMENT NOTES: ROCK inhibition assay, LANCE Ultra TR-FRET kinase assay (ROCK2)
# CONDITIONS USED: 4 μM ATP, 50 nM ULight-CREBtide substrate
The following molecules are shown together with reported IC50 values.

Record excerpt, results attached:
| MOLECULE | PROPERTY MEASURED | RESULT |
| --- | --- | --- |
| COc1cccc(Cn2cnc3cc(-c4conc4C)ccc3c2=O)c1 | IC50 | 10 to 100 nM |
| CC(C)NC(=O)c1cccc([C@@H](C)n2cnc3cc(-c4cn[nH]c4C(F)(F)F)ccc3c2=O)c1 | IC50 | < 10 nM |
| CN1CCC(NC(=O)c2cc(F)cc(Cn3ccc4cc(-c5ccnn5C)ccc4c3=O)c2)CC1 | IC50 | 10 to 100 nM |

Problem: Can you share its IC50? I mean this molecule: `CNC(=O)c1cccc([C@H](C)n2cnc3cc(-c4cn[nH]c4C(F)(F)F)ccc3c2=O)c1`
Result: < 10 nM

Problem: Sample CNC(=O)c1cccc(Cn2cc(C(C)O)c3cc(-c4ccnn4C)ccc3c2=O)c1 (stereo not shown) — what was its IC50?
Result: < 10 nM

Problem: Recorded IC50 for `CNC(=O)c1cccc(Cn2ccc3cc(-c4cnoc4)ccc3c2=O)c1` , please?
Result: > 500 nM

Problem: Need IC50 of `O=C(NCCc1ccncc1)c1cccc(Cn2cnc3cc(-c4cn[nH]c4C(F)(F)F)ccc3c2=O)c1` , thanks.
Result: < 10 nM

Problem: Returns the measured IC50 for the input molecule. Input: `Cn1nccc1-c1ccc2c(=O)n(Cc3cc(F)cc(C(=O)NCC4CCNCC4)c3)ccc2c1`
Result: < 10 nM

Problem: Quick check: IC50 of `CNC(=O)c1cccc([C@@H](C)n2cnc3cc(-c4cn[nH]c4C)ccc3c2=O)c1` ?
Result: < 10 nM

Problem: Would you mind telling me what IC50 value was observed for CNC(=O)c1cccc(Cn2cc(CC(C)O)c3cc(-c4cn[nH]c4Cl)ccc3c2=O)c1 (stereo not shown) ?
Result: < 10 nM

###

Let's look at some molecules and their measured pIC50.
# TESTED ON: Recombinant ROCK1 (amino acids 1-477) (Homo sapiens, UniProt Q13464)
# Construct: Recombinant ROCK1 (amino acids 1-477); by word order, ROCK1 from Carna Biosciences
# Sequence (Q13464 1-477): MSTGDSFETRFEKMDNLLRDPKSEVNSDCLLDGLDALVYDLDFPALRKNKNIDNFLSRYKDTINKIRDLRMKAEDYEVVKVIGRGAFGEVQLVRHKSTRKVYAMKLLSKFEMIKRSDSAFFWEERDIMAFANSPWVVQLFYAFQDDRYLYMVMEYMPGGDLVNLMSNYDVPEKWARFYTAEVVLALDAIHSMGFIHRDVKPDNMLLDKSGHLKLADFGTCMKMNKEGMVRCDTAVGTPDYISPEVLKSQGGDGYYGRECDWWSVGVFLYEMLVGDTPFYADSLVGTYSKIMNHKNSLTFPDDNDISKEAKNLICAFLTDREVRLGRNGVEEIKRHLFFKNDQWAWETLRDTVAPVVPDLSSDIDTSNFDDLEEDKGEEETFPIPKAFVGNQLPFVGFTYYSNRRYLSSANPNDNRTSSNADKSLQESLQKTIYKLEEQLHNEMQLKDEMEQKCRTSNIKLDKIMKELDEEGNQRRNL
# EXPERIMENT NOTES: ROCK inhibition assay, LANCE Ultra TR-FRET kinase assay (ROCK1)
# CONDITIONS USED: 1 μM ATP, 50 nM ULight-CREBtide substrate
pIC50: −log10 of the molar value.

| MOLECULE | TESTED ON | PROPERTY MEASURED | RESULT |
| --- | --- | --- | --- |
| N#Cc1cccc(C(CN)n2cnc3cc(-c4cn[nH]c4Cl)ccc3c2=O)c1 (centres unmarked) | Recombinant ROCK1 (amino acids 1-477) (Homo sapiens, UniProt Q13464) | pIC50 | < 6.30 |

Problem: I would be grateful if you could share the reported pIC50 for `Cc1nocc1-c1ccc2c(=O)n(Cc3cccc(C(=O)NCC4COC4)c3)cnc2c1` .
Result: 7.00 to 7.96

Problem: Recorded pIC50 for `Cc1nocc1-c1ccc2c(=O)n(Cc3cc(F)cc(C(=O)Nc4ccc5c(c4)CN(C4CC4)CC5)c3)ccc2c1` , please?
Result: 7.00 to 7.96

Problem: Which pIC50 value is on record for `CNC(=O)c1cccc(Cn2cc(Cl)c3cc(-c4conc4C)ccc3c2=O)c1` ?
Result: 7.00 to 7.96

Problem: GET /values?readout=pIC50&item= `Nc1cc(-c2ccc3c(=O)n(Cc4cccc(C(=O)NCc5ccc6ccccc6c5)c4)ccc3c2)ccn1`
Result: < 6.30

Problem: Value lookup for pIC50; key = `O=C(NC1CCOCC1)c1cc(F)cc(Cn2ccc3cc(-c4c[nH]nc4C(F)(F)F)ccc3c2=O)c1`
Result: 7.00 to 7.96

Problem: May I ask what pIC50 has been recorded for `O=C(Nc1cccc(Cn2ccc3cc(-c4c[nH]nc4C(F)(F)F)ccc3c2=O)c1)C1CCOCC1` ?
Result: 6.30 to 7.00

Problem: Please give the measured pIC50 for this molecule: `CNC(=O)c1cccc(Cn2cnc3cc(-c4ccnc(N)c4)ccc3c2=O)c1`
Result: 6.30 to 7.00

Problem: What does the data say about its pIC50? Entry: CNC(=O)c1cc(F)cc(C(C)n2cnc3cc(-c4cn[nH]c4C(F)(F)F)ccc3c2=O)c1 (centres unmarked)
Result: 7.00 to 7.96

###

# TESTED ON: Recombinant ROCK2 (amino acids 5-554) (Homo sapiens)
# Construct: ROCK2 (amino acids 5-554); by word order, ROCK2 from SignalChem
# EXPERIMENT NOTES: ROCK inhibition assay, LANCE Ultra TR-FRET kinase assay (ROCK2)
# CONDITIONS USED: 4 μM ATP, 50 nM ULight-CREBtide substrate
PROPERTY MEASURED: IC50

| COMPOUND | IC50 |
| --- | --- |
| CN1CCC(CNC(=O)c2cccc(Cn3ccc4cc(-c5c[nH]nc5C(F)F)ccc4c3=O)c2)CC1 [Compound 56] | < 10 nM |
| CNC(=O)c1cccc([C@@H](C)n2cnc3cc(-c4conc4C)ncc3c2=O)c1 [Compound 572] | 10 to 100 nM |
| CNC(=O)c1cccc(Cn2ccc3cc(-c4cn[nH]c4F)ccc3c2=O)c1 [Compound 297] | < 10 nM |
| N#Cc1cccc(C(CN)n2cnc3cc(-c4ccnc(F)c4)ccc3c2=O)c1 (centres unmarked) [Compound 502] | 100 to 500 nM |
| O=C(N[C@H]1CC[C@H](O)CC1)c1cc(F)cc(Cn2ccc3cc(-c4c[nH]nc4Cl)ncc3c2=O)c1 [Compound 263] | < 10 nM |

Problem: State the recorded IC50 for this entry: CNC(=O)c1cc(F)cc(C(C)n2ccc3cc(-c4cn[nH]c4C(F)(F)F)ccc3c2=O)c1 (centres unmarked) [Compound 283]
Result: < 10 nM

Problem: Can you share its IC50? I mean this compound: Cc1n[nH]cc1-c1ccc2c(=O)n(Cc3cccc(C(=O)Nc4ccccc4OC(F)(F)F)c3)ccc2c1 [Compound 38]
Result: 100 to 500 nM

Problem: Look up IC50 for this compound: COc1cccc(Cn2ccc3cc(-c4c[nH]nc4C)ccc3c2=O)c1 [Compound 4]
Result: < 10 nM

###

# TESTED ON: Recombinant ROCK1 (amino acids 1-477) (Homo sapiens, UniProt Q13464)
# Construct: Recombinant ROCK1 (amino acids 1-477); by word order, ROCK1 from Carna Biosciences
# EXPERIMENT NOTES: ROCK inhibition assay, LANCE Ultra TR-FRET kinase assay (ROCK1)
# CONDITIONS USED: 1 μM ATP, 50 nM ULight-CREBtide substrate
pIC50: −log10 of the molar value.
pIC50 values by entry

For orientation, consider the following solved cases.
| COMPOUND | TESTED ON | pIC50 |
| --- | --- | --- |
| Cc1nocc1-c1ccc2c(=O)n(Cc3cc(F)cc(C(=O)Nc4ccn(C)n4)c3)ccc2c1 | Recombinant ROCK1 (amino acids 1-477) (Homo sapiens, UniProt Q13464) | 7.00 to 7.96 |
| [2H]C([2H])([2H])NC(=O)c1cccc(Cn2ccc3cc(-c4cn[nH]c4C(F)(F)F)ncc3c2=O)c1 | Recombinant ROCK1 (amino acids 1-477) (Homo sapiens, UniProt Q13464) | 7.00 to 7.96 |
| Cc1n[nH]cc1-c1ccc2c(=O)n(Cc3cccc(C(=O)NCC(F)(F)F)c3)ccc2c1 | Recombinant ROCK1 (amino acids 1-477) (Homo sapiens, UniProt Q13464) | 6.30 to 7.00 |
| Cc1nocc1-c1ccc2c(=O)n(Cc3cc(F)cc(C(=O)Nc4nc5c(s4)CCN(C)C5)c3)ccc2c1 | Recombinant ROCK1 (amino acids 1-477) (Homo sapiens, UniProt Q13464) | 7.00 to 7.96 |
| Nc1cc(-c2ccc3c(=O)n(Cc4cccc(C(=O)Nc5ccc6c(c5)CNCC6)c4)ccc3c2)ccn1 | Recombinant ROCK1 (amino acids 1-477) (Homo sapiens, UniProt Q13464) | 7.00 to 7.96 |
| Cn1nccc1-c1ccc2c(=O)n(Cc3cccc(C(=O)NCCO)c3)cnc2c1 | Recombinant ROCK1 (amino acids 1-477) (Homo sapiens, UniProt Q13464) | 6.30 to 7.00 |
| CNC(=O)c1cccc(Cn2cc(C(C)O)c3cc(-c4c[nH]nc4C(F)F)ccc3c2=O)c1 (stereo not shown) | Recombinant ROCK1 (amino acids 1-477) (Homo sapiens, UniProt Q13464) | > 8.00 |
| CC(C)N1CCC(CNC(=O)c2cc(F)cc(Cn3ccc4cc(N5CCOCC5)ccc4c3=O)c2)CC1 | Recombinant ROCK1 (amino acids 1-477) (Homo sapiens, UniProt Q13464) | 6.30 to 7.00 |
| COc1cccc(Cn2ccc3cc(-c4c[nH]nc4C)ccc3c2=O)c1 | Recombinant ROCK1 (amino acids 1-477) (Homo sapiens, UniProt Q13464) | 7.00 to 7.96 |
| Nc1cc(-c2ccc3c(=O)n(Cc4cc(F)cc(C(=O)NC5COC5)c4)ccc3c2)ccn1 | Recombinant ROCK1 (amino acids 1-477) (Homo sapiens, UniProt Q13464) | < 6.30 |

Problem: Requested read-out: pIC50. Entry: `CN1CCC(NC(=O)c2cccc(Cn3cnc4cc(-c5ccnc(N)c5)ccc4c3=O)c2)CC1`
Result: 7.00 to 7.96

Problem: // lookup pIC50 for `Cc1nocc1-c1ccc2c(=O)n(Cc3cccc(C(=O)NCC4CCNCC4)c3)ccc2c1`
Result: 7.00 to 7.96

Problem: Form field: reported pIC50 of `Cn1nccc1-c1ccc2c(=O)n(Cc3cccc(C(=O)N[C@H]4C[C@@H](O)C4)c3)cnc2c1`
Result: 7.00 to 7.96

Problem: Please give the measured pIC50 for this compound: `CNC(=O)c1cc(Cn2ccc3cc(-c4conc4C)ccc3c2=O)ccc1F`
Result: 6.30 to 7.00

Problem: # get_value(readout='pIC50', item= `CNC(=O)c1cccc(Cn2ccc3cc(-c4conc4C)ccc3c2=O)c1` )
Result: 6.30 to 7.00

Problem: For the compound shown here, `O=C(NCCc1cccc(F)n1)c1cccc(Cn2ccc3cc(-c4c[nH]nc4C(F)(F)F)ccc3c2=O)c1` , give the reported pIC50.
Result: 7.00 to 7.96
